# Test system: K. pneumoniae
# assay-protocol: Broth dilution MIC determination (CLSI) against K. pneumoniae strains
# Assay type: cell-based
# assay-context: Klebsiella pneumoniae, ATCC10031, ATCC10031; read-out: MIC K. pneumoniae ATCC10031
The following compounds are listed with their measured MIC values.
Answer with the number, then the unit.

CC[C@H]1OC(=O)[C@H](C)C(=O)[C@H](C)[C@@H](O[C@@H]2OC(CN(CCN)CCN)CC(N(C)C)C2O)[C@](C)(OC)C[C@@H](C)CN[C@H](C)[C@H]2N(CCCCn3cc(-c4cccc(N)c4)nn3)C(=O)O[C@]12C (some centres unmarked); 16 µg/mL

We next turn to a different compound, shown below.
K. pneumoniae assay, compound CC[C@H]1OC(=O)[C@H](C)C(=O)[C@H](C)[C@@H](O[C@@H]2OC(CNC(=O)c3ccccc3)CC(N(C)C)C2O)[C@](C)(OC)C[C@@H](C)CN[C@H](C)[C@H]2N(CCCCn3cc(-c4cccc(N)c4)nn3)C(=O)O[C@]12C (some centres unmarked) , recorded MIC = 8 µg/mL

----------
# System: S. pneumoniae
# assay-protocol: Broth dilution MIC determination (CLSI) against S. pneumoniae strains
# Format: cell-based
# assay-context: Streptococcus pneumoniae, erm B + mef A genotype; read-out: MIC S. pneumoniae erm B + mef A genotype
measured-metric: MIC

Entry under test: C=CCOC(=O)NCC1CC(N(C)C)C(O)[C@H](O[C@@H]2[C@@H](C)C(=O)[C@@H](C)C(=O)O[C@H](CC)[C@@]3(C)OC(=O)N(CCCCn4cc(-c5cccc(N)c5)nn4)[C@@H]3[C@@H](C)NC[C@H](C)C[C@@]2(C)OC)O1 (stereo partly drawn) . Its MIC was > 32 mg/L

Entry under test: CC[C@H]1OC(=O)[C@H](C)C(=O)[C@H](C)[C@@H](O[C@@H]2OC(Cn3cc(-c4cnc(N)s4)nn3)CC(N(C)C)C2O)[C@](C)(OC)C[C@@H](C)CN[C@H](C)[C@H]2N(CCCCn3cc(-c4cccc(N)c4)nn3)C(=O)O[C@]12C (stereo partly drawn) . Its MIC was > 32 mg/L

Entry under test: CC[C@H]1OC(=O)[C@H](C)[C@@H](O[C@H]2C[C@@](C)(OC)[C@@H](O)[C@H](C)O2)[C@H](C)[C@@H](O[C@@H]2O[C@H](C)C[C@H](N(C)C)[C@H]2O)[C@](C)(O)C[C@@H](C)CN(C)[C@H](C)[C@@H](O)[C@]1(C)O [Azithromycin, azithromycin, reference compound] . Its MIC was > 32 mg/L

----------
# Test system: E. coli
# assay-protocol: Broth dilution MIC determination (CLSI) against E. coli strains
# Format: cell-based
# assay-context: Escherichia coli, ATCC25922, ATCC25922; read-out: MIC E. coli ATCC25922
measured-metric: MIC

Some solved cases for reference:
CC[C@H]1OC(=O)[C@H](C)C(=O)[C@H](C)[C@@H](O[C@@H]2OC(CNC(=O)CN)CC(N(C)C)C2O)[C@](C)(OC)C[C@@H](C)CN[C@H](C)[C@H]2N(CCCCn3cc(-c4cccc(N)c4)nn3)C(=O)O[C@]12C (stereo partly shown); > 32 µg/mL
CC[C@H]1OC(=O)[C@H](C)C(=O)[C@H](C)[C@@H](O[C@@H]2OC(CN(C)C)CC(N(C)C)C2O)[C@](C)(OC)C[C@@H](C)CN(C)[C@H](C)[C@H]2N(CCCCn3cc(-c4cccc(N)c4)nn3)C(=O)O[C@]12C (stereo partly shown); > 32 µg/mL

We next turn to a different molecule, shown below.
Entry under test: CC[C@H]1OC(=O)[C@H](C)C(=O)[C@H](C)[C@@H](O[C@@H]2OC(CNC(=O)CNC(C)(C)C)CC(N(C)C)C2O)[C@](C)(OC)C[C@@H](C)CN[C@H](C)[C@H]2N(CCCCn3cc(-c4cccc(N)c4)nn3)C(=O)O[C@]12C (stereo partly shown) . Its MIC was 32 µg/mL

----------
# System: P. aeruginosa
# assay-protocol: Broth dilution MIC determination (CLSI) against P. aeruginosa strains
# Assay type: cell-based
# assay-context: P. aeruginosa PAO1:mex, strain MP-8 (Table N2)
measured-metric: MIC

CCC1OC(=O)C(C)C(=O)C(C)C(OC2OC(C)CC(N3CCOC3CO)C2O)C(C)(OC)CC(C)CNC(C)C2N(CCCCn3cc(-c4cccc(N)c4)nn3)C(=O)OC12C (stereo not drawn); >64 µg/mL
CCC1OC(=O)C(C)C(=O)C(C)C(OC2OC(C)CC(N(CCO)CCO)C2O)C(C)(OC)CC(C)CNC(C)C2N(CCCCn3cc(-c4cccc(N)c4)nn3)C(=O)OC12C (stereo not drawn); >64 µg/mL

We next turn to a different compound, shown below.
P. aeruginosa assay, compound CCC1OC(=O)C(C)C(=O)C(C)C(OC2OC(C)CC(NCc3cccnc3)C2O)C(C)(OC)CC(C)CNC(C)C2N(CCCCn3cc(-c4cccc(N)c4)nn3)C(=O)OC12C (stereo not drawn) , recorded MIC = >64 µg/mL

----------
# Tested on: E. coli
# assay-protocol: Broth dilution MIC determination (CLSI) against E. coli strains
# Format: cell-based
# assay-context: Escherichia coli, read-out: MIC E. coli CTX-M-14, CTX-M-14
The following compounds are listed with their measured MIC values.

CC[C@H]1OC(=O)[C@H](C)C(=O)[C@H](C)[C@@H](O[C@@H]2OC(CN(C)C)CC(N(C)C)C2O)[C@](C)(OC)C[C@@H](C)CN(C)[C@H](C)[C@H]2N(CCCCn3cc(-c4cccc(N)c4)nn3)C(=O)O[C@]12C (stereo partly drawn); > 32 µg/mL
CC[C@H]1OC(=O)[C@H](C)C(=O)[C@H](C)[C@@H](O[C@@H]2OC(Cn3cc(-c4cnc(N)s4)nn3)CC(N(C)C)C2O)[C@](C)(OC)C[C@@H](C)CN[C@H](C)[C@H]2N(CCCCn3cc(-c4cccc(N)c4)nn3)C(=O)O[C@]12C (stereo partly drawn); > 32 µg/mL
CC[C@H]1OC(=O)[C@H](C)C(=O)[C@H](C)[C@@H](O[C@@H]2OC(CN)CC(N(C)C)C2O)[C@](C)(OC)C[C@@H](C)CN[C@H](C)[C@H]2N(CCCCn3cc(-c4cccc(N)c4)nn3)C(=O)O[C@]12C (stereo partly drawn); > 32 µg/mL
CC[C@H]1OC(=O)[C@H](C)C(=O)[C@H](C)[C@@H](O[C@@H]2OC(CNC(=O)C(Cl)Cl)CC(N(C)C)C2O)[C@](C)(OC)C[C@@H](C)CN[C@H](C)[C@H]2N(CCCCn3cc(-c4cccc(N)c4)nn3)C(=O)O[C@]12C (stereo partly drawn); > 32 µg/mL
CC[C@H]1OC(=O)[C@H](C)C(=O)[C@H](C)[C@@H](O[C@@H]2OC(Cn3cc(-c4ccccn4)nn3)CC(N(C)C)C2O)[C@](C)(OC)C[C@@H](C)CN[C@H](C)[C@H]2N(CCCCn3cc(-c4cccc(N)c4)nn3)C(=O)O[C@]12C (stereo partly drawn); > 32 µg/mL

We next turn to a different compound, shown below.
Entry under test: CC[C@H]1OC(=O)[C@H](C)C(=O)[C@H](C)[C@@H](O[C@@H]2OC(CNC(=O)c3ccccn3)CC(N(C)C)C2O)[C@](C)(OC)C[C@@H](C)CN[C@H](C)[C@H]2N(CCCCn3cc(-c4cccc(N)c4)nn3)C(=O)O[C@]12C (stereo partly drawn) . Its MIC was > 32 µg/mL

----------
# Tested on: K. pneumoniae
# assay-protocol: Broth dilution MIC determination (CLSI) against K. pneumoniae strains
# Assay type: cell-based
# assay-context: K. pneumoniae Clinical, strain MP-548 (Table N4)
The following molecules are listed with their measured MIC values.

CCC1OC(=O)C(C)C(=O)C(C)C(OC2OC(C)CC(N(C)CCO)C2O)C(C)(OC)CC(C)CN(C)C(C)C2N(CCCCn3cc(-c4cccc(N)c4)nn3)C(=O)OC12C (stereo not drawn) [FSM-120419]; >64 µg/mL

Entry under test: CCC1OC(=O)C(C)C(=O)C(C)C(OC2OC(C)CC(N(C)CCCS(C)(=O)=O)C2O)C(C)(OC)CC(C)CN(C)C(C)C2N(CCCCn3cc(-c4cccc(N)c4)nn3)C(=O)OC12C (stereo not drawn) [FSM-120421] . Its MIC was >64 µg/mL

Entry under test: CCC1OC(=O)C(C)C(=O)C(C)C(OC2OC(C)CC(N(C)CCO)C2O)C(C)(OC)CC(C)CNC(C)C2N(CCCCn3cc(-c4cccc(N)c4)nn3)C(=O)OC12C (stereo not drawn) [FSM-120418] . Its MIC was 64 µg/mL

----------
# Test system: E. coli
# assay-protocol: Broth dilution MIC determination (CLSI) against E. coli strains
# Format: cell-based
# assay-context: Escherichia coli, ATCC25922, ATCC25922; read-out: MIC E. coli ATCC25922
The following compounds are listed with their measured MIC values.
Entry rule: numbers only, all in µg/mL.

Some solved cases for reference:
CC[C@H]1OC(=O)[C@H](C)C(=O)[C@H](C)[C@@H](O[C@@H]2OC(CNC(=O)c3cnccn3)CC(N(C)C)C2O)[C@](C)(OC)C[C@@H](C)CN[C@H](C)[C@H]2N(CCCCn3cc(-c4cccc(N)c4)nn3)C(=O)O[C@]12C (stereo partly shown); 16
CC[C@H]1OC(=O)[C@H](C)[C@@H](O[C@H]2C[C@@](C)(OC)[C@@H](O)[C@H](C)O2)[C@H](C)[C@@H](O[C@@H]2O[C@H](C)C[C@H](N(C)C)[C@H]2O)[C@](C)(O)C[C@@H](C)CN(C)[C@H](C)[C@@H](O)[C@]1(C)O [Azithromycin, azithromycin, reference compound]; 4
CC[C@H]1OC(=O)[C@H](C)C(=O)[C@H](C)[C@@H](O[C@@H]2OC(CNC(=O)C(Cl)Cl)CC(N(C)C)C2O)[C@](C)(OC)C[C@@H](C)CN[C@H](C)[C@H]2N(CCCCn3cc(-c4cccc(N)c4)nn3)C(=O)O[C@]12C (stereo partly shown); 16
CC[C@H]1OC(=O)[C@H](C)C(=O)[C@H](C)[C@@H](O[C@@H]2OC(CNC(=O)c3cc[nH]n3)CC(N(C)C)C2O)[C@](C)(OC)C[C@@H](C)CN[C@H](C)[C@H]2N(CCCCn3cc(-c4cccc(N)c4)nn3)C(=O)O[C@]12C (stereo partly shown); 32

We next turn to a different compound, shown below.
Entry under test: CC[C@H]1OC(=O)[C@H](C)C(=O)[C@H](C)[C@@H](O[C@@H]2OC(Cn3cc(-c4cccc(N)n4)nn3)CC(N(C)C)C2O)[C@](C)(OC)C[C@@H](C)CN[C@H](C)[C@H]2N(CCCCn3cc(-c4cccc(N)c4)nn3)C(=O)O[C@]12C (stereo partly shown) . Its MIC was 16
